Source listed as the supplement of paper PMC10126150.

Test system: ATP;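 also: ATP exposure 15 min at 22 °C before imaging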
Experiment description: switch fluorescence ratio, 500 uM ATP over buffer (Cy3 cluster intensity, sum of 5 cycles each) (fold (ratio)); higher = stronger signal-on switching upon ATP binding; sequences stand for … in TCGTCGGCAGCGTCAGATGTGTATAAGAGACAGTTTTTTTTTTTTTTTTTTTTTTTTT…TC
Test parameters: aptamer strand: ATP DNA aptamer (quencher-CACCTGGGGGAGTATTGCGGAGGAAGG + anchor), 100 nM annealed; ATP concentration: 500 uM
Quantity kind: switch fluorescence ratio
Give bare numbers.

Reference set, count: 3
>  <Monomer sequence>
CATATGGTTG

>  <switch fluorescence ratio>
0.99

$$$$
>  <Monomer sequence>
ATGATGTTTG

>  <switch fluorescence ratio>
0.981

$$$$
>  <Monomer sequence>
TTTAAAGCAG

>  <switch fluorescence ratio>
1.01

$$$$

Parameter requested: switch fluorescence ratio. Apply to each item below.
1. GCATTGTGCC
2. ACGGCCTTAT
3. TTGGACTAAG
4. TTGGGTAAGC
5. TCGGGCTGTG
6. GAGGTTTAAG
7. TACGGGGTCT

1.02
0.991
0.99
0.994
1.02
0.957
1.04

---

Tested on: ATP;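 also: ATP exposure 15 min at 22 °C before imaging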
Experiment description: switch fluorescence ratio, 500 uM ATP over buffer (Cy3 cluster intensity, sum of 5 cycles each) (fold (ratio)); higher = stronger signal-on switching upon ATP binding; sequences stand for … in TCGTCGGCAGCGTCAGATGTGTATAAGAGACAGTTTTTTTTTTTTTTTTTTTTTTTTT…TC
Test parameters: aptamer strand: ATP DNA aptamer (quencher-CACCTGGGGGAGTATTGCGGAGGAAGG + anchor), 100 nM annealed; ATP concentration: 500 uM
Quantity kind: switch fluorescence ratio
Numbers only.

Reference set, count: 6
>  <Monomer sequence>
ATGTACCGCG

>  <Value reported>
1.06

$$$$
>  <Monomer sequence>
AGCTTGCTAT

>  <Value reported>
0.97

$$$$
>  <Monomer sequence>
GCTGAGGCAG

>  <Value reported>
1

$$$$
>  <Monomer sequence>
ATAAAGGGCG

>  <Value reported>
1.03

$$$$
>  <Monomer sequence>
TGGTTTGCGC

>  <Value reported>
1.36

$$$$
>  <Monomer sequence>
CATAATTGCT

>  <Value reported>
1.01

$$$$

Parameter requested: switch fluorescence ratio. Apply to each item below.
1. GGTATTATGG
2. TGGGGATATT

1: 1; 2: 0.996

---

System: ATP;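 also: ATP exposure 15 min at 22 °C before imaging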
Experiment description: switch fluorescence ratio, 500 uM ATP over buffer (Cy3 cluster intensity, sum of 5 cycles each) (fold (ratio)); higher = stronger signal-on switching upon ATP binding; sequences stand for … in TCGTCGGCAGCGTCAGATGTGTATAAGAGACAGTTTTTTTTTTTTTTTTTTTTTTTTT…TC
Test parameters: aptamer strand: ATP DNA aptamer (quencher-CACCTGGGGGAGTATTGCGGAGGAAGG + anchor), 100 nM annealed; ATP concentration: 500 uM
Assign switch fluorescence ratio to each entry below.
Numbers only.

Reference set, count: 6
>  <Monomer sequence>
AGTAGAGCCT

>  <Measured on>
ATP;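 also: ATP exposure 15 min at 22 °C before imaging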

>  <switch fluorescence ratio>
1.06

$$$$
>  <Monomer sequence>
CGTTGTGAGG

>  <Measured on>
ATP;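 also: ATP exposure 15 min at 22 °C before imaging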

>  <switch fluorescence ratio>
1.03

$$$$
>  <Monomer sequence>
AAAAAGAAAG

>  <Measured on>
ATP;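 also: ATP exposure 15 min at 22 °C before imaging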

>  <switch fluorescence ratio>
1.02

$$$$
>  <Monomer sequence>
ACCTGCTTTT

>  <Measured on>
ATP;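 also: ATP exposure 15 min at 22 °C before imaging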

>  <switch fluorescence ratio>
1.05

$$$$
>  <Monomer sequence>
GGAATCATGG

>  <Measured on>
ATP;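 also: ATP exposure 15 min at 22 °C before imaging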

>  <switch fluorescence ratio>
0.996

$$$$
>  <Monomer sequence>
CGTAGTGCCC

>  <Measured on>
ATP;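 also: ATP exposure 15 min at 22 °C before imaging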

>  <switch fluorescence ratio>
1.07

$$$$

Parameter requested: switch fluorescence ratio. Apply to each item below.
1. GGAGTATTGG
2. TGGTTCGCTA
3. TTCAAGGGCA
4. TTGTGGTGAC

[1.02, 1.02, 1.01, 0.987]

Parameter requested: switch fluorescence ratio. Apply to each item below.
1. TCTGGGAAGT
2. GGCCTGGATT
3. TGGGGAGTAA
4. AATGGTTTAT
5. AATATGTGGG
6. CGGTGTGTAG

1. 0.986
2. 1.05
3. 1.02
4. 0.949
5. 0.975
6. 0.983

Parameter requested: switch fluorescence ratio. Apply to each item below.
1. TTAGGTGGG
2. TCGGTGTCTA
3. AAGGCTTAGC
4. AATGGAGGGG
5. TCAACCTTTT
6. CACGGGTGTT
7. CGATTAAGGC
8. TACGGGTAAT

1. 0.989
2. 0.985
3. 1.03
4. 0.978
5. 1.04
6. 1.32
7. 1
8. 1.04

Parameter requested: switch fluorescence ratio. Apply to each item below.
1. AATGTCTCTC
2. AAAGCCGGTA

0.998
1.01
